Recorded values, source the supplement of paper PMC10567573.

B1: DYRK1B (parent)
chain: ARKYFERLPGGGWTLRRTKELRKD

variants of: B1; assay: protein stability index of a GFP-peptide fusion (GPS, HEK-293T) (PSI 1-6); higher = more stable; details: c terminus: a fixed tail appended;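 further: lentivirally expressed fusions sorted by FACS into six bins by GFP to DsRed ratio, PSI derived from sequencing read proportions per bin multiplied by bin number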
protein stability index values, listed per item
Give the figure by itself; no unit, no explanation.

Example variants with recorded protein stability index:
var=E20H measuredparameter="protein stability index" readoutnumber=1.79
var=E6R measuredparameter="protein stability index" readoutnumber=4.86
var=K19T measuredparameter="protein stability index" readoutnumber=3.41

Enquiry: What does the data say about its protein stability index? Entry: R7A
Return: 3.3

Enquiry: // query: L15P
Return: 2.7

Enquiry: // query: E20D
Return: 3.65

Enquiry: // query: T14R
Return: 2.33

Enquiry: // query: L15Q
Return: 3.65
